Test system: HCV genotype 2a
assayMethodText: microbe, parasite or virus in culture
Format: cell-based
conditionNotes: Hepatitis C virus, Huh7.5, HCV genotype 2a in Huh7.5 cells, luciferase reporter assay; read-out: 2a EC50
measuredAttribute: EC50

COc1ccc(-c2sc(NC3CCCCC3)nc2C)cc1S(=O)(=O)NC1CCCNC1 (centres unmarked) [AB4174] : > 1000 nM
COc1ccc(NS(=O)(=O)c2cc(-c3sc(NC(=O)CC4CCCCC4)nc3C)ccc2OC)c(C)c1 [AB4115] : 200 to 1000 nM
COc1ccc(-c2sc(NC(=O)CC3CCCC3)nc2C)cc1S(=O)(=O)Nc1ccc(Cl)cc1F [AB4171] : 200 to 1000 nM
COc1ccc(-c2sc(NCC3CCCCC3)nc2C)cc1S(=O)(=O)NCC1CCNCC1 [AB4228] : > 1000 nM
COc1ccc(-c2sc(NC(=O)CC3CCCC3)nc2C)cc1S(=O)(=O)Nc1cnc(Cl)c(C)c1 [AB4108] : 200 to 1000 nM
COc1ccc(NS(=O)(=O)c2cc(-c3sc(NC(=O)C4CCCC4)nc3C)ccc2OC)c(OC)n1 [AB4054] : 200 to 1000 nM
COc1ccc(-c2sc(NC3CCCCC3)nc2C)cc1S(=O)(=O)Nc1ccc(Cl)cc1F.O=C(O)C(F)(F)F [AB4100] : < 200 nM
COc1ccc(-c2sc(NC3CCCCC3)nc2C)cc1S(=O)(=O)Nc1ccc(Cl)cc1.O=C(O)C(F)(F)F [AB4099] : < 200 nM

Ref: patent US9309236B2
